Measured EC50 accompanies every entry in the list below.
test system: HCV 1b_Huh-Luc/Neo-ET cell line persistently expressing a bicistronic genotype 1b replicon in Huh 7 cells; experiment: HCV replicon assay (luciferase readout, 72 h); format: cell-based, HCV genotype 1b; details: Hepatitis C virus, Huh-7, 72 h, read-out: Inhibition of HCV genotype 1b

Value lookup for EC50; key = CC(C)[C@@H](C(=O)N1CCC[C@H]1c1ncc(-c2ccc(C#Cc3ccc4nc([C@@H]5CCCN5C(=O)[C@H](C(C)C)N5CCOC5=O)[nH]c4c3)cc2)[nH]1)N1CCOC1=O [Compound 1039]
1 to 9.9 nM

Value lookup for EC50; key = COC(=O)N[C@@H](C(=O)N1CCC[C@H]1c1ncc(-c2ccc(C#Cc3ccc(-c4cnc([C@@H]5CCCN5C(=O)[C@@H]5CCCN5C)[nH]4)cc3)cc2)[nH]1)c1ccccc1 [Compound 202]
< 1 nM

Value lookup for EC50; key = COC(=O)N[C@H](C(=O)N1CCC[C@H]1c1nc2ccc(C#Cc3ccc(-c4cnc([C@@H]5CCCN5C(=O)[C@H](c5ccccc5)N(C)C)[nH]4)cc3)cc2[nH]1)C(C)C [Compound 864]
< 1 nM

Value lookup for EC50; key = O=C(N[C@@H](C(=O)N1CCC[C@H]1c1ncc(-c2ccc3nc(C#Cc4ccc5nc([C@@H]6CCCN6C(=O)[C@H](NC(=O)OC6CCOCC6)c6ccccc6)[nH]c5c4)ccc3c2)[nH]1)c1ccccc1)OC1CCOCC1 [Compound 1110]
< 1 nM

Value lookup for EC50; key = COC[C@@H]1CCCN1C(=O)N[C@@H](C(=O)N1CCC[C@H]1c1ncc(-c2ccc(C#Cc3ccc(-c4cnc([C@@H]5CCCN5C(=O)[C@H](NC(=O)OC)c5ccccc5)[nH]4)cc3)cc2)[nH]1)c1ccccc1 [Compound 260]
< 1 nM

---

tested on: HCV 1b_Huh-Luc/Neo-ET cell line persistently expressing a bicistronic genotype 1b replicon in Huh 7 cells; experiment: HCV replicon assay (luciferase readout, 72 h); format: cell-based, HCV genotype 1b; details: Hepatitis C virus, Huh-7, 72 h, read-out: Inhibition of HCV genotype 1b
Measured EC50 accompanies every entry in the list below.

Sample records with EC50:
{"MOLECULE": "CC(C)(C)OC(=O)NCC(=O)N1CCC[C@H]1c1ncc(C#Cc2ccc(-c3cnc([C@@H]4CCCN4C(=O)CNC(=O)OC(C)(C)C)[nH]3)cc2)[nH]1", "EC50": "10 to 999 nM"}
{"MOLECULE": "COC(=O)N[C@H](C(=O)N1CCC[C@H]1c1ncc(-c2ccc(C#Cc3ccc(-c4cnc([C@@H]5CCCN5C(=O)[C@@H](NC(=O)OC)C(C)(C)O)[nH]4)cc3)cc2)[nH]1)C(C)C", "EC50": "< 1 nM"}
{"MOLECULE": "C[C@H]1OC(=O)N[C@@H]1C(=O)N1CCC[C@H]1c1ncc(-c2ccc(C#Cc3ccc(-c4cnc([C@@H]5CCCN5C(=O)[C@H]5NC(=O)O[C@@H]5C)[nH]4)cc3)cc2)[nH]1", "EC50": "10 to 999 nM"}
{"MOLECULE": "COC(=O)N[C@H](C(=O)N1CCC[C@H]1c1ncc(-c2ccc(C#Cc3ccc4nc([C@@H]5CCCN5C(=O)[C@@H](c5ccccc5)N(C)C)[nH]c4c3)cc2)[nH]1)C(C)C", "EC50": "< 1 nM"}
{"MOLECULE": "O=C(N[C@@H](C(=O)N1CCC[C@H]1c1ncc(C#Cc2ccc(-c3ccc(-c4cnc([C@@H]5CCCN5C(=O)[C@H](NC(=O)N5CC[C@@H](O)C5)c5ccccc5)[nH]4)cc3)cc2)[nH]1)c1ccccc1)N1CC[C@@H](O)C1", "EC50": "< 1 nM"}

Value lookup for EC50; key = "O=C(NC[C@@H]1CCCN1C(=O)[C@H](NC(=O)C1CC1)c1ccccc1)c1ccc(C#Cc2ccc(-c3cnc([C@@H]4CCCN4C(=O)[C@H](NC(=O)C4CC4)c4ccccc4)[nH]3)cc2)cc1"
< 1 nM

Value lookup for EC50; key = "CC(C)[C@H](NC(=O)C1CC1)C(=O)N1CCC[C@H]1c1ncc(-c2ccc(C#Cc3ccc(-c4cnc([C@@H]5CCCN5C(=O)[C@@H](NC(=O)C5CC5)C(C)C)[nH]4)cc3)cc2)[nH]1"
1 to 9.9 nM

Value lookup for EC50; key = "COC(=O)N[C@@H](Cc1c[nH]c2ccccc12)C(=O)N1CCC[C@H]1c1ncc(-c2ccc(C#Cc3ccc4nc([C@@H]5CCCN5C(=O)[C@H](Cc5c[nH]c6ccccc56)NC(=O)OC)[nH]c4c3)cc2)[nH]1"
< 1 nM

Value lookup for EC50; key = "C[C@@H](NC(=O)[C@@H]1CCCN1C(=O)[C@H](NC(=O)C1CC1)c1ccccc1)c1ccc(C#Cc2ccc(-c3cnc([C@@H]4CCCN4C(=O)[C@H](NC(=O)C4CC4)c4ccccc4)[nH]3)cc2)cc1"
< 1 nM

Value lookup for EC50; key = "COC(=O)N[C@H](C(=O)N1CCC[C@H]1c1ncc(-c2ccc(C#Cc3ccc4nc([C@@H]5CCCN5C(=O)[C@@H](NC(=O)OC)C(C)(C)C)[nH]c4c3)cc2)[nH]1)C(C)(C)C"
< 1 nM

Value lookup for EC50; key = "COC(=O)N[C@@H](C(=O)N1CCC[C@H]1c1ncc(-c2ccc(C#Cc3ccc(-c4cnc([C@@H]5CCCN5C(=O)[C@H]5CCCO5)[nH]4)cc3)cc2)[nH]1)c1ccccc1"
< 1 nM
